- SYSTEM UNDER TEST: Alkaline phosphatase, placental type (Homo sapiens, UniProt P05187)
- Sequence (P05187 whole entry, looked up): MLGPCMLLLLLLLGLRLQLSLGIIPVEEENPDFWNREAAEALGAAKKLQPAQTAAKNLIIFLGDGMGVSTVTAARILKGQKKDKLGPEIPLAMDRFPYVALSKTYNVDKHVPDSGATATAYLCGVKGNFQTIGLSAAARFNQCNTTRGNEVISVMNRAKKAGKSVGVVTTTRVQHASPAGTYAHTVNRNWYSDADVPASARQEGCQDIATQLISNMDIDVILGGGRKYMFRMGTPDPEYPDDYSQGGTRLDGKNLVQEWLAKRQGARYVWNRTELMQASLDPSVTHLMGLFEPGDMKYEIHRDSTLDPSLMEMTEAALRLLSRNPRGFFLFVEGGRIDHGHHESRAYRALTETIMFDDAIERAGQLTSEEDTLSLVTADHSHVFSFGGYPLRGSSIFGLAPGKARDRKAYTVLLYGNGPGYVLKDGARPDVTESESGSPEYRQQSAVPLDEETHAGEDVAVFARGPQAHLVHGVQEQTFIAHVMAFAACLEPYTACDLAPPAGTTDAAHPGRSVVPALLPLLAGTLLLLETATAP
- EXPERIMENTAL PROTOCOL: PLAP enzyme activators, dose response, mouse IAP activator project, biochemical, uHTS hits (AID 488878)
pEC50: −log10 of the molar value.
PARAMETER: pEC50

[1] Nc1c(/C=C2/C=CC(=O)C(O)=C2)c(=O)nc2sc(CC(=O)N3CCCC3)nn12
[2] Cc1cc(=O)[nH]c(N=NCc2ccc(O)c(O)c2)n1
[3] C[C@@H]1O[C@@H](O[C@H]2[C@H](O)[C@@H](O)[C@H](Oc3c(-c4ccc(O)c(O)c4)oc4cc(O)cc(=O)c-4c3O)O[C@@H]2CO)[C@H](O)[C@H](O)[C@H]1O
Request: Order them by pEC50, ascending: the compounds above. As an answer, provide the labels arranged in the order called for.
Result: 2, 3, 1

---

- SYSTEM UNDER TEST: Alkaline phosphatase, placental type (Homo sapiens)
- EXPERIMENTAL PROTOCOL: PLAP enzyme activators, dose response, mouse IAP activator project, biochemical, uHTS hits (AID 488878)
PARAMETER: EC50 (µM)

Some solved entries appear below for comparison.
• O=C(NN=CC1=CC(=O)C(=O)CC1)NN=CC1=CC(=O)C(=O)CC1 = 29.6
• O=c1ccc2cc3c([nH]c4ccc(Br)cc43)oc-2c1O = 24.1
• CN(CCO)c1ccc(CN=Nc2ccc([N+](=O)[O-])cc2S(=O)(=O)Nc2ccccc2C(=O)O)cc1 = 26

[A] Nc1c(/C=C2/C=CC(=O)C(O)=C2)c(=O)nc2sc(CC(=O)N3CCCCC3)nn12
[B] CS(=O)(=O)c1ccc2c(c1)sc1nc(=O)c(/C=C3/C=CC(=O)C(O)=C3)c(N)n12
Request: Of A and B , which carries the smaller reported EC50 figure? Please identify the chosen entry by its label.
Result: A

---

- SYSTEM UNDER TEST: Alkaline phosphatase, placental type (Homo sapiens)
- EXPERIMENTAL PROTOCOL: PLAP enzyme activators, dose response, mouse IAP activator project, biochemical, uHTS hits (AID 488878)
PARAMETER: EC50

Consider the following illustrative entries.
* C#CCOCCOCCOCCNc1nc(N2CCN(C(=O)CCCCCCCCCCNC(=O)[C@@H](CCC(=O)O)n3cc(CCCCCN)nn3)CC2)nc(N2CCN(C(=O)CCCCCCCCCCNC(=O)[C@H]([C@@H](C)CC)n3cc(CCCCCN)nn3)CC2)n1 | > 100 µM
* C#CCOCCOCCOCCNc1nc(N2CCN(C(=O)CCCCCCCCCCNC(=O)Cn3cc(CCCCCN)nn3)CC2)nc(N2CCN(C(=O)CCCCCCCCCCNC(=O)Cn3cc(C[C@@H](C)O)nn3)CC2)n1 | > 100 µM

Request: Give EC50 only, for O=C1CC(=O)c2c(O)cc(O)c(O)c2C1=O [4,5,7,8-tetrahydroxy-1,2-naphthoquinone] , using Alkaline phosphatase, placental type (Homo sapiens) data.
Result: > 100 µM
